Biological target: Fibroblast growth factor 2 (Homo sapiens) (UniProt P09038)
Sequence (P09038 whole entry, looked up): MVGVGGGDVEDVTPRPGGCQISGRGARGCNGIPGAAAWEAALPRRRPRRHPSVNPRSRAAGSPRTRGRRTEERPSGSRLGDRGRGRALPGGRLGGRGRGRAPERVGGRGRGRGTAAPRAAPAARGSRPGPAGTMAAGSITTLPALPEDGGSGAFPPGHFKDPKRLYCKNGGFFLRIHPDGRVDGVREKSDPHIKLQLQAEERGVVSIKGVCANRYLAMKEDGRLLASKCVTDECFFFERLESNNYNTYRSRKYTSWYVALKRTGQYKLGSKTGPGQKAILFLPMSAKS
Assay: basic fibroblast growth factor binding to printed compounds – biochemical, small-molecule microarray, 635/667 nm fluorescence, primary screen (AID 1133)
Details: FGF2, fluorescence 635/667, higher = more signal
reported endpoint: composite z-score

C=CCC(OC(C)=O)[C@@H]1[C@@H](N(Cc2cccc3ccccc23)C(=O)Cc2ccc(F)cc2)c2cc(OCCCO)ccc2N1C(=O)Cc1ccc(OC)cc1 (stereo partly drawn)    -0.109

Quick one: composite z-score for COC(=O)c1c(CC[C@@H](CO)NC(=O)N[C@@H](C)Cn2cc(C3(O)CCCC3)nn2)oc(C(C)=O)c1C(=O)OC ?
0.0707

Thanks! And COCCOC(=O)N1C(=O)[C@@]2(c3cc(C#CC4(O)CCCCCC4)ccc31)[C@H](C(=O)N1CCN(c3ncccn3)CC1)[C@H]1C(=O)O[C@H](c3ccccc3)[C@H](c3ccccc3)N1[C@@H]2c1ccc(O)cc1 ?
0.35

Then this compound: COCCCNC(=O)[C@]1(Cc2ccccc2)N=C(c2ccc(OCCCO)cc2)O[C@@H]1c1ccccc1N=[N+]=[N-]
0.401

The reported numbers originate from PubChem BioAssay.
